- Tested on: DU145 prostate carcinoma
- MEASUREMENT_CONDITIONS: number of 5 mice; i.v. qd x 1 at estimated MTD (Taxol 24 mg/kg split), Day 91
EXPERIMENTAL_READOUT: Complete Response
Lab note: jot the number down without any unit.

Suppose we examine the molecule `CCC(=O)O[C@H]1C(=O)[C@@]2(C)[C@H]([C@H](OC(=O)c3ccccc3)[C@]3(O)C[C@H](OC(=O)[C@H](O)[C@H](C=C(C)C)NC(=O)OC(C)(C)C)C(C)=C1C3(C)C)[C@]1(OC(C)=O)CO[C@@H]1C[C@@H]2O` ; what Complete Response value has been reported?
1

Which measured Complete Response value corresponds to `CC(=O)O[C@@]12CO[C@@H]1C[C@H](O)[C@@]1(C)C(=O)[C@H](OC(=O)C3CC3)C3=C(C)[C@@H](OC(=O)[C@H](O)[C@H](C=C(C)C)NC(=O)OC(C)(C)C)C[C@@](O)([C@@H](OC(=O)c4ccccc4)[C@H]21)C3(C)C` ?
2

Could you tell me which Complete Response is on file for `CCC(=O)O[C@H]1C(=O)[C@@]2(C)[C@H]([C@H](OC(=O)c3ccccc3)[C@]3(O)C[C@H](OC(=O)[C@H](O)[C@@H](NC(=O)OC(C)(C)C)c4ccccn4)C(C)=C1C3(C)C)[C@]1(OC(C)=O)CO[C@@H]1C[C@@H]2O` ?
2

We now examine a further molecule.
// query Complete Response value for entry CC(=O)O[C@H]1C(=O)[C@@]2(C)[C@H]([C@H](OC(=O)c3ccccc3)[C@]3(O)C[C@H](OC(=O)[C@H](O)[C@@H](NC(=O)c4ccccc4)c4ccccc4)C(C)=C1C3(C)C)[C@]1(OC(C)=O)CO[C@@H]1C[C@@H]2O [Taxol, paclitaxel, reference compound]
0

###

- Tested on: MX-1 carcinoma
- MEASUREMENT_CONDITIONS: number of 6 mice; i.v. qd x 1 at MTD, Day 60; doses as in E17
EXPERIMENTAL_READOUT: Survivors
Number only, no unit.

Param readout = Survivors; param system = MX-1 carcinoma; param query = CCCC(=O)O[C@H]1C(=O)[C@@]2(C)[C@H]([C@H](OC(=O)c3ccccc3)[C@]3(O)C[C@H](OC(=O)[C@H](O)[C@@H](NC(=O)OC(C)(C)C)c4cccs4)C(C)=C1C3(C)C)[C@]1(OC(C)=O)CO[C@@H]1C[C@@H]2O [Compound 1003] ; response: value
4

Test system MX-1 carcinoma; read-out Survivors; what value for CCCC(=O)O[C@H]1C(=O)[C@@]2(C)[C@H]([C@H](OC(=O)c3ccccc3)[C@]3(O)C[C@H](OC(=O)[C@H](O)[C@@H](NC(=O)OC(C)(C)C)c4ccsc4)C(C)=C1C3(C)C)[C@]1(OC(C)=O)CO[C@@H]1C[C@@H]2O [Compound 1011] ?
6

Identify the measured Survivors of CC(=O)O[C@@]12CO[C@@H]1C[C@H](O)[C@@]1(C)C(=O)[C@H](OC(=O)C3CC3)C3=C(C)[C@@H](OC(=O)[C@H](O)[C@@H](NC(=O)c4ccccc4)c4ccco4)C[C@@](O)([C@@H](OC(=O)c4ccccc4)[C@H]21)C3(C)C [Compound 0908] for MX-1 carcinoma.
6

***
Observed Survivors on MX-1 carcinoma for CC(=O)O[C@H]1C(=O)[C@@]2(C)[C@H]([C@H](OC(=O)c3ccccc3)[C@]3(O)C[C@H](OC(=O)[C@H](O)[C@@H](NC(=O)c4ccccc4)c4ccccc4)C(C)=C1C3(C)C)[C@]1(OC(C)=O)CO[C@@H]1C[C@@H]2O [Taxol, paclitaxel, reference compound] , please.
1

Look up Survivors with MX-1 carcinoma for this compound: CCCC(=O)O[C@H]1C(=O)[C@@]2(C)[C@H]([C@H](OC(=O)c3ccccc3)[C@]3(O)C[C@H](OC(=O)[C@H](O)[C@@H](NC(=O)OC(C)(C)C)c4ccccn4)C(C)=C1C3(C)C)[C@]1(OC(C)=O)CO[C@@H]1C[C@@H]2O [Compound 0951]
6

Record CCC(=O)OC1C(=O)C2(C)C(O)CC3OCC3(OC(C)=O)C2C(OC(=O)c2ccccc2)C2(O)CC(OC(=O)C(O)C(NC(=O)c3ccccc3)c3cccs3)C(C)=C1C2(C)C (centres unmarked) [Compound 0687] : what is its Survivors with MX-1 carcinoma?
5

Recorded Survivors for CCCC(=O)O[C@H]1C(=O)[C@@]2(C)[C@H]([C@H](OC(=O)c3ccccc3)[C@]3(O)C[C@H](OC(=O)[C@H](O)[C@@H](NC(=O)OC(C)(C)C)c4ccoc4)C(C)=C1C3(C)C)[C@]1(OC(C)=O)CO[C@@H]1C[C@@H]2O [Compound 0999] with MX-1 carcinoma, please?
5

Can you look up Survivors on MX-1 carcinoma for CCC(=O)O[C@H]1C(=O)[C@@]2(C)[C@H]([C@H](OC(=O)c3ccccc3)[C@]3(O)C[C@H](OC(=O)[C@H](O)[C@@H](NC(=O)OC(C)(C)C)c4ccco4)C(C)=C1C3(C)C)[C@]1(OC(C)=O)CO[C@@H]1C[C@@H]2O [Compound 0536] ?
4
